System: LACV passage control WT
ASSAY_PROTOCOL: microbe, parasite or virus in culture
Format: cell-based
REPORTED_CONDITIONS: La Crosse virus, SH-SY5Y
QUANTITY_KIND: pEC50
pEC50 is a log-scale quantity: -log10 of the concentration expressed in molar.

// pEC50 value for `CC(C)N1CN(C2c3ccccc3CCc3ccccc32)n2cc(C(=O)O)c(=O)c(O)c2C1=O` : 6.19

---

ASSAY_PROTOCOL: Cell viability assay (MTT), uninfected SH-SY5Y cells
Assay type: cell-based
REPORTED_CONDITIONS: human, MTT at 3 dpi, mean ± SD
QUANTITY_KIND: CC50 at 3 days

NC(=O)c1nc(F)c[nH]c1=O [T-705, favipiravir, reference compound]    > 200 µM
NC(=O)c1ncn([C@@H]2O[C@H](CO)[C@@H](O)[C@H]2O)n1 [RBV, Ribavirin, reference compound]    121 µM

Now for the compound whose CC50 at 3 days we want.
// CC50 at 3 days value for `CC(C)N1CN(C2c3ccccc3CCc3ccccc32)n2cc(C(=O)O)c(=O)c(O)c2C1=O` : > 50 µM
